Target: xanthine oxidase (XO) (Bos taurus, UniProt P80457)
Construct: XO (from bovine milk); purchased Merck (Darmstadt, Germany); host or cells: bovine milk (natural source)
Sequence (P80457 whole entry): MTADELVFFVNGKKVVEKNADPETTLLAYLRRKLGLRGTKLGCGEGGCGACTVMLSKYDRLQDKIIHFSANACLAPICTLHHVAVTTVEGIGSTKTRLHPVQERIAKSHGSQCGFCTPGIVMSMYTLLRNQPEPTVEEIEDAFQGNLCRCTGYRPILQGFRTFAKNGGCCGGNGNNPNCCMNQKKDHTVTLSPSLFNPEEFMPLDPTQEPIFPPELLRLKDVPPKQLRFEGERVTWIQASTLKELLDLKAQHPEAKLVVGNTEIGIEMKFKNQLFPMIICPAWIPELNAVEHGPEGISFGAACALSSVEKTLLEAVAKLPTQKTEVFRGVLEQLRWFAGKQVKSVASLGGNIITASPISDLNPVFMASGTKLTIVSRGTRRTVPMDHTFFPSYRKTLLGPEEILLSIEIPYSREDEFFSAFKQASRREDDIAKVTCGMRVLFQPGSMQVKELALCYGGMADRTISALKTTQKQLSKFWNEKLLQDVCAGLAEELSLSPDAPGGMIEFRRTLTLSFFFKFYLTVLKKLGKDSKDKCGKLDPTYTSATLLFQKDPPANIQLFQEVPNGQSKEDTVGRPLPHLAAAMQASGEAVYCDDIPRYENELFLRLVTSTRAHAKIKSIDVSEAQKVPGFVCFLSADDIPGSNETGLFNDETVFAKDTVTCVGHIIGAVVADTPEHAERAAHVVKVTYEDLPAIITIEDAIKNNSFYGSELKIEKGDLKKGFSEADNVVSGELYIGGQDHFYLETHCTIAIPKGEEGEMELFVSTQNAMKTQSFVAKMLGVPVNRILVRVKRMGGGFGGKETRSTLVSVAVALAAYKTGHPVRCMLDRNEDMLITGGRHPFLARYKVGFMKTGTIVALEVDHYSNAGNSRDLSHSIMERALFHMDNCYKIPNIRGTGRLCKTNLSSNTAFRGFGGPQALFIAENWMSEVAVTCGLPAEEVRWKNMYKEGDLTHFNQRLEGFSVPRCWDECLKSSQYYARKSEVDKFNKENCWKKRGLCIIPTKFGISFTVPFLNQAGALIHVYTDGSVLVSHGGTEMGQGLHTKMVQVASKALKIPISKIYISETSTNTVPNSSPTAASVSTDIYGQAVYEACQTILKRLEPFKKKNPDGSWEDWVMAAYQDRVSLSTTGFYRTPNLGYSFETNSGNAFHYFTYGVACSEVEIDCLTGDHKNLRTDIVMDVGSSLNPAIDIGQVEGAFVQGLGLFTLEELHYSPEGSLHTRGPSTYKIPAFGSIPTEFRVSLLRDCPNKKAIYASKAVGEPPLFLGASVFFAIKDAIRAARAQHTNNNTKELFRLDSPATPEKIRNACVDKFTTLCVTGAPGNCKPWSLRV
Experiment: Fluorescence quenching studies of polyphenol-XO complexes
Assay type: binding, bovine
Details: association constant K in L mol^−1; λex 280 nm, λem 335 nm; XO 0.4 μmol L^−1; pH 7.5; read-out: Log K ± SEM (binding constant, modified Stern–Volmer) (converted)
Experimental: Increasing concentrations of polyphenols (0, 2, 4, 6, 8 and 10 μmol L^−1) were added to a standard amount of XO (0.4 μmol L^−1) in sodium phosphate buffer (0.05 mol L^−1, pH 7.5). Then, the emission spectra of XO were recorded using 280 nm excitation wavelength. […] Polyphenol‐induced fluorescence quenching was evaluated at 335 nm. […]
Readout Label: Kd (µM)

Look over these answered cases.
{"Molecule": "COc1cc([C@@H]2Oc3cc([C@H]4Oc5cc(O)cc(O)c5C(=O)[C@@H]4O)ccc3O[C@H]2CO)ccc1O [SB]", "Kd / µM": 13.5}
{"Molecule": "COc1cc([C@H]2Oc3cc([C@H]4Oc5cc(O)cc(O)c5C(=O)[C@@H]4O)ccc3O[C@@H]2CO)ccc1O [SA, silybin A]", "Kd / µM": 19.5}

P = COc1cc([C@@H]2Oc3c(O)cc(-c4oc5cc(O)cc(O)c5c(=O)c4O)cc3[C@H]2CO)ccc1O [DSC]
Q = COc1cc([C@H]2Oc3ccc([C@H]4Oc5cc(O)cc(O)c5C(=O)[C@@H]4O)cc3O[C@@H]2CO)ccc1O [ISA, isosilybin A]
Which one would you say has the larger Kd value: P , or Q ? Please reply using the label of the selected record.
Q

---

target: xanthine oxidase (XO) (Bos taurus, UniProt P80457); construct: XO (from bovine milk); purchased Merck (Darmstadt, Germany); host or cells: bovine milk (natural source); test: XO assay with 6MP as substrate (6-thiouric acid formation, HPLC-UV); format: biochemical, bovine; conditions: inhibitor 20 μmol L^−1; 6MP 5 μmol L^−1
Readout Label: decrease in 6-thiouric acid formation (inhibition of XO-catalyzed 6MP oxidation)

{"Compound": "COc1cc([C@@H]2Oc3c(O)cc(-c4oc5cc(O)cc(O)c5c(=O)c4O)cc3[C@H]2CO)ccc1O", "System Tested": "xanthine oxidase (XO) (Bos taurus, UniProt P80457)", "Result": "marked decreases"}
{"Compound": "Oc1ncnc2[nH]ncc12 [APU, allopurinol, reference compound]", "System Tested": "xanthine oxidase (XO) (Bos taurus, UniProt P80457)", "Result": "marked decreases"}

---

target: xanthine oxidase (XO) (Bos taurus, UniProt P80457); construct: XO (from bovine milk); purchased Merck (Darmstadt, Germany); host or cells: bovine milk (natural source); assay: XO assay with 6MP as substrate (6-thiouric acid formation, HPLC-UV); format: biochemical, bovine; conditions: ratio of IC50 values with the two substrates;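 further: incubation in 0.05 mol L^−1 sodium phosphate buffer, with 6MP and 6-thiouric acid quantified by HPLC-UV and conversion taken as the product share of substrate plus product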
Readout Label: IC50(6MP)/IC50(xanthine)

{"Molecule": "COc1cc([C@@H]2Oc3cc([C@H]4Oc5cc(O)cc(O)c5C(=O)[C@@H]4O)ccc3O[C@H]2CO)ccc1OS(=O)(=O)O [SBS, silybin B‐20‐O‐sulfate]", "IC50(6MP)/IC50(xanthine)": 2.4}
{"Molecule": "COc1cc([C@H]2Oc3cc([C@H]4Oc5cc(O)cc(O)c5C(=O)[C@@H]4O)ccc3O[C@@H]2CO)ccc1OS(=O)(=O)O [SAS, silybin A‐20‐O‐sulfate]", "IC50(6MP)/IC50(xanthine)": 2.0}

A = COc1cc([C@@H]2Oc3c(O)cc(-c4oc5cc(O)cc(O)c5c(=O)c4O)cc3[C@H]2CO)ccc1O
B = COc1cc([C@@H]2Oc3c(O)cc([C@H]4Oc5cc(O)cc(O)c5C(=O)[C@@H]4O)cc3[C@H]2CO)ccc1O
Input pair: A , B . Output: entry with lower IC50(6MP)/IC50(xanthine). Pick one and reply with its label.
B
(B: 2.2, A: 3.2)
